Entry source: patent US11458138B2

# targetSystem: Human LATS1 kinase domain protein (Homo sapiens (Human))
# methodDescription: LATS1 Biochemical Caliper Assay (Compound Examples 291-335)
# conditionDetails: Caliper EZ Reader
pIC50: −log10 of the molar value.
measure: pIC50

{"columns": ["molecule", "readoutNumber"],
 "data": [
  ["CC1CCCCN1c1cc(-c2ccncc2)nc2cnccc12 (centres unmarked) [Example 293]", 7.80],
  ["c1cc(-c2cc(NC3COC3)c3ccncc3n2)ccn1 [Example 296]", 6.68],
  ["CC(C)(Nc1nc(-c2ccncc2)nc2cnccc12)C(N)=O [Example 326]", 7.24],
  ["CC1CNCCN1c1cc(-c2ccncc2)nc2cnccc12 (centres unmarked) [Example 303]", 7.99],
  ["CC1(C)CN(c2cc(-c3ccncc3)nc3cnccc23)CCN1 [Example 298]", 7.23],
  ["CN(C)C(=O)C(C)(C)Nc1nc(-c2ccncc2)nc2cnccc12 [Example 314]", 6.33],
  ["CC1(Nc2cc(-c3ccncc3)nc3cnccc23)CC1 [Example 297]", 8.12],
  ["FC(F)(F)[C@@H]1CN(c2nc(-c3ccncc3)nc3cnccc23)CCN1 [Example 321]", 8.42],
  ["CN(C)C(C)(C)CNc1nc(-c2ccncc2)nc2cnccc12 [Example 325]", 8.43],
  ["CC(C)(CC(N)=O)Nc1nc(-c2ccncc2)nc2cnccc12 [Example 318]", 8.74],
  ["Cc1n[nH]c(C)c1-c1nc(NC(C)(C)CCN(C)C)c2ccncc2n1 [Example 332]", 8.12],
  ["CN(c1cc(-c2ccncc2)nc2cnccc12)C(C)(C)C [Example 306]", 8.92],
  ["FC(F)(F)[C@H]1CN(c2cc(-c3ccncc3)nc3cnccc23)CCN1 [Example 305]", 6.18],
  ["CC(C)(CNc1nc(-c2ccncc2)nc2cnccc12)NC(=O)OC(C)(C)C [Example 310]", 6.79],
  ["CC(C)(CCNC(=O)OC(C)(C)C)Nc1nc(-c2ccncc2)nc2cnccc12 [Example 328]", 7.72],
  ["CC(C)(N)C(C)(C)Nc1nc(-c2ccncc2)nc2cnccc12 [Example 320]", 9.15],
  ["CC1(Nc2cc(-c3ccncc3)nc3cnccc23)CCC1 [Example 300]", 8.92],
  ["CC1(C)CN(c2cc(-c3ccncc3)nc3cnccc23)CCO1 [Example 299]", 7.01],
  ["CC(C)(C)Nc1nc(-c2nonc2N)nc2cnccc12 [Example 324]", 7.98],
  ["CN(C)CCC(C)(C)Nc1nc(-c2c[nH]nc2C(F)(F)F)nc2cnccc12 [Example 333]", 8.64],
  ["CC(C)(N)CNc1nc(-c2ccncc2)nc2cnccc12 [Example 312]", 8.62],
  ["CN(C)CC(C)(C)CN(C)c1nc(-c2ccncc2)nc2cnccc12 [Example 329]", 8.52],
  ["CC(C)(CN)CNc1cc(-c2ccncc2)nc2cnccc12 [Example 301]", 8.28],
  ["FC(F)(F)[C@H]1CN(c2nc(-c3ccncc3)nc3cnccc23)CCN1 [Example 319]", 7.24],
  ["CN(C)CCC(C)(C)Nc1nc(-c2ccnc(N)c2)nc2cnccc12 [Example 334]", 8.21],
  ["FC(F)(F)C1(Nc2cc(-c3ccncc3)nc3cnccc23)CCC1 [Example 294]", 8.35],
  ["CC(C)(CNC(=O)OC(C)(C)C)CNc1nc(-c2ccncc2)nc2cnccc12 [Example 316]", 7.37],
  ["CN1CCN(c2cc(-c3ccncc3)nc3cnccc23)CC1 [Example 291]", 6.34],
  ["CC(C)(N)CNc1cc(-c2ccncc2)nc2cnccc12 [Example 295]", 8.00],
  ["CN(C)CC(C)(C)CNc1nc(-c2ccncc2)nc2cnccc12 [Example 323]", 8.35],
  ["c1cc(-c2cc(N3CCNCC3)c3ccncc3n2)ccn1 [Example 292]", 7.36],
  ["CN(C)CCC(C)(C)Nc1nc(-c2ccnc(F)c2)nc2cnccc12 [Example 331]", 7.98],
  ["CC(C)(C)OC(=O)NCCNc1nc(-c2ccncc2)nc2cnccc12 [Example 311]", 5.99],
  ["NCCNc1nc(-c2ccncc2)nc2cnccc12 [Example 313]", 8.42],
  ["CC(CN)CNc1cc(-c2ccncc2)nc2cnccc12 (centres unmarked) [Example 304]", 8.02]
]}

* * *

Catalogue of IC50 readings, one per entry.
# targetSystem: LATS1 (Homo sapiens (Human))
# methodDescription: LATS1 biochemical assay (Table 1A, Compound Examples 1-290; method in the earlier part)

{"columns": ["molecule", "relationOperator", "IC50, nM"],
 "data": [
  ["Cc1[nH]ncc1-c1nc(N[C@H](C)c2ccccc2)c2ccncc2n1", "=", 28],
  ["CCCNc1nc(-c2c[nH]c3ncncc23)nc2cnccc12", "=", 25],
  ["CC1(Nc2nc(-c3ccnc(C(F)(F)F)c3)nc3cnccc23)CC1", "=", 4270],
  ["CC(C)(Nc1nc(-c2ccncc2)nc2cnccc12)c1ccccc1", "=", 11],
  ["CCCNc1nc(-c2c[nH]c3ncccc23)nc2cnccc12", "=", 1],
  ["Cn1nccc1-c1nc(NC2(CO)CCC2)c2ccncc2n1", "=", 16],
  ["Cc1n[nH]cc1-c1nc(NC(C)(C)CC(C)(C)O)c2ccncc2n1", "=", 4],
  ["OCC1(Nc2nc(-c3ccncc3)nc3cnccc23)CCCC1", "=", 6],
  ["CCC(C)(C)Nc1nc(-c2ccncc2Cl)nc2cnccc12", "=", 5],
  ["O=C(O)C1CC(Nc2nc(-c3ccncc3)nc3cnccc23)C1 (centres unmarked)", "=", 1440],
  ["CC(C)(CN1CCOCC1)Nc1nc(-c2ccncc2)nc2cnccc12", "=", 6],
  ["CCNc1nc(-c2ccncc2)nc2cnccc12", "=", 4],
  ["O[C@H]1CCC[C@@H]1Nc1nc(-c2ccncc2)nc2cnccc12", "=", 71],
  ["CC1(Nc2nc(-c3cncs3)nc3cnccc23)CC1", "=", 171],
  ["FC(F)(F)C1(Nc2nc(-c3ccncc3)nc3cnccc23)CC1", "=", 1],
  ["CC(C)(CCO)Nc1nc(-c2ccncc2)nc2cnccc12", "=", 1],
  ["CC(C)(C)Nc1cc(-c2ccnnc2)nc2cnccc12", "=", 463],
  ["CC(C)(CO)Nc1cc(-c2ccncc2F)nc2cnccc12", "=", 10],
  ["Fc1cnccc1-c1cc(N2CCOCC2)c2ccncc2n1", ">", 2500],
  ["Clc1cnccc1-c1nc(NC2CCCC2)c2ccncc2n1", "=", 53]
]}

* * *

# targetSystem: Human LATS1 kinase domain protein (Homo sapiens (Human), UniProt O95835)
# Sequence (O95835 whole entry, looked up, the tested form may be a part): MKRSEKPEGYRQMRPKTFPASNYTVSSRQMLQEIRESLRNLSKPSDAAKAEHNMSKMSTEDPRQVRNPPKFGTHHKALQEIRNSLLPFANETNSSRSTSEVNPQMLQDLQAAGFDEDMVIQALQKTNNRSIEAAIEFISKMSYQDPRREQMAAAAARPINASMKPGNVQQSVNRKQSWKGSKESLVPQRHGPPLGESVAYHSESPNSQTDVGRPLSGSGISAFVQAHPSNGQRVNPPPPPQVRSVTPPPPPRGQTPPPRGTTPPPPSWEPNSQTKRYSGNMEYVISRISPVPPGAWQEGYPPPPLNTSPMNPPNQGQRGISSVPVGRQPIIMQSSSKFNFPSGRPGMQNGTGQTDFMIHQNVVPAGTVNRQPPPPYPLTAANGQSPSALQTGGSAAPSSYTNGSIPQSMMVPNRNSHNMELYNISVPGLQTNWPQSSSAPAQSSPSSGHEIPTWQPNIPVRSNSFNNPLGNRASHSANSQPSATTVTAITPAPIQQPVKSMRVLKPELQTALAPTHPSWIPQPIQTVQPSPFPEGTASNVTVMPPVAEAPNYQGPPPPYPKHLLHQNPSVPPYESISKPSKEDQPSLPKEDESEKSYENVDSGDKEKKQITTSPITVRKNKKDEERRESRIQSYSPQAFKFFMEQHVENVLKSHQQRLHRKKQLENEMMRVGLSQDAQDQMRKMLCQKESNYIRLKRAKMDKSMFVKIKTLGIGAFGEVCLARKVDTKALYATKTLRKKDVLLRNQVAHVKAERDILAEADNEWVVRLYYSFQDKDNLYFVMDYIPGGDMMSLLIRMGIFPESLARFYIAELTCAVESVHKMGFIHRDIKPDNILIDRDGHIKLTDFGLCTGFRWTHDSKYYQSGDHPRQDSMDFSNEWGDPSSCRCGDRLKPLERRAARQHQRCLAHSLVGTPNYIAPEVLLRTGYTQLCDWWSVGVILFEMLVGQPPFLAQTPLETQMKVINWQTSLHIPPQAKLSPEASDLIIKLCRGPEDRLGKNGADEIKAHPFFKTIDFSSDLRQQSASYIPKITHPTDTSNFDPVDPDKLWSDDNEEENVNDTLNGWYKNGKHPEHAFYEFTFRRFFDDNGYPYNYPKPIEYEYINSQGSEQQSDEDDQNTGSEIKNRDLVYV
# Sequence (Q7L9L4 whole entry partner, looked up, the tested form may be a part): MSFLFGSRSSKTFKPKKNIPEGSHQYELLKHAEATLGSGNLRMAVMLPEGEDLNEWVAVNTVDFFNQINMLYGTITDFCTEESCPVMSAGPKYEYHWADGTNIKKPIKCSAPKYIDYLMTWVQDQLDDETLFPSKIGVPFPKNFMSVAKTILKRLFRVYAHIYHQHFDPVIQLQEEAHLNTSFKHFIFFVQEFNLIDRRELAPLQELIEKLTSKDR
# methodDescription: LATS1 Biochemical Caliper Assay
# conditionDetails: 400 micromolar ATP
Catalogue of IC50 readings, one per entry.

{"columns": ["molecule", "targetSystem", "IC50 (nM)"],
 "data": [
  ["CCCNc1nc(-c2ccncc2)nc2cnccc12 [Example 14]", "Human LATS1 kinase domain protein (Homo sapiens (Human), UniProt O95835)", 34],
  ["Cc1n[nH]cc1-c1nc(NC2(C)CC2)c2ccncc2n1 [Example 133]", "Human LATS1 kinase domain protein (Homo sapiens (Human), UniProt O95835)", 4],
  ["CC(C)(O)CC(C)(C)Nc1nc(-c2ccncc2)nc2cnccc12 [Example 49]", "Human LATS1 kinase domain protein (Homo sapiens (Human), UniProt O95835)", 12],
  ["c1cc(-c2nc(NC3CCCC3)c3ccncc3n2)ccn1 [Example 65]", "Human LATS1 kinase domain protein (Homo sapiens (Human), UniProt O95835)", 22]
]}

* * *

Catalogue of pIC50 readings, one per entry.
# System: Phospho-YAP (SER127) in HaCaT cells
# methodDescription: pYAP HTRF Assay (HaCaT Cells)
# Assay type: cell-based, human
# conditionDetails: 2 hours
pIC50: −log10 of the molar value.
measure: pIC50

{"columns": ["compound", "measure", "readoutNumber"],
 "data": [
  ["CC1CCCC1Nc1nc(-c2ccncc2)nc2cnccc12 (single isomer, unassigned) [Example 17c]", "pIC50", 5.37],
  ["CC1CCCC1Nc1nc(-c2ccncc2)nc2cnccc12 (single isomer, unassigned) [Example 17d]", "pIC50", 6.40]
]}

* * *

# targetSystem: UniProtKB O95835
# methodDescription: LATS1 biochemical assay (Table 1A, Compound Examples 1-290; method in the earlier part)
pIC50: −log10 of the molar value.
measure: pIC50

{"columns": ["chemicalSmiles", "targetSystem", "readoutNumber"],
 "data": [
  ["CC(C)(COCC(=O)O)Nc1nc(-c2ccncc2)nc2cnccc12", "UniProtKB O95835", 7.52],
  ["CC(C)(C#N)Nc1nc(-c2ccncc2)nc2cnccc12", "UniProtKB O95835", 8.10],
  ["Cc1n[nH]cc1-c1nc(NC2(CO)CCC2)c2ccncc2n1", "UniProtKB O95835", 8.05],
  ["Cc1ccc(Nc2nc(-c3ccncc3)nc3cnccc23)cc1", "UniProtKB O95835", 6.90],
  ["CCCNc1nc(-c2c(C)[nH]c3ncccc23)nc2cnccc12", "UniProtKB O95835", 8.22]
]}
